Below is a list of entries, each paired with its recorded pIC50 value.
Target or system: HIV protease (Human immunodeficiency virus type 1 group M subtype B, UniProt P04585)
Construct: HIV protease is diluted in the assay buffer to a final enzyme concentration of 12.3 nanomolar, based on a molecular weight of 10,780
Experimental protocol: HIV protease enzyme assay (fluorescence, substrate 2-Ile-Nle-Phe(p-NO2)-Gln-ArgNH2)
Type: biochemical
Assay conditions: Table 21, 80 μM substrate, 12.3 nanomolar enzyme, pH 6.4
pIC50: −log10 of the molar value.
Result type: pIC50

Compound | Observed result
CCC(C)[C@H](NC(=O)CN1CCCC1)C(=O)N[C@@H](Cc1ccccc1)[C@H](O)CN(CC(C)C)S(=O)(=O)c1ccc(OC)cc1 (stereo partly shown) | 8.52
CC(C)CN(C[C@@H](O)[C@H](Cc1ccccc1)NC(=O)[C@@H](NC(=O)CN1CCCC1)C(C)(C)C)S(=O)(=O)c1ccc2c(c1)CCO2 | 8.40
CC(C)CN(C[C@@H](O)[C@H](Cc1ccccc1)NC(=O)[C@H](CS(C)(=O)=O)NC(=O)CN1CCCC1)S(=O)(=O)c1ccc2c(c1)OCO2 | 8.10
CC(C)CN(C[C@@H](O)[C@H](Cc1ccccc1)NC(=O)[C@@H](NC(=O)CN1CCCC1)C(C)(C)C)S(=O)(=O)c1ccc2c(c1)OCO2 | 8.52
CCC(C)[C@H](NC(=O)CN1CCCC1)C(=O)N[C@@H](Cc1ccccc1)[C@H](O)CN(CC(C)C)S(=O)(=O)c1ccc2c(c1)OCO2 (stereo partly shown) | 8.52
CC(C)CN(C[C@@H](O)[C@H](Cc1ccccc1)NC(=O)[C@@H](NC(=O)CN1CCCC1)C(C)(C)C)S(=O)(=O)c1ccccc1 | 8.40
C#CC[C@H](NC(=O)CN1CCCC1)C(=O)N[C@@H](Cc1ccccc1)[C@H](O)CN(CC(C)C)S(=O)(=O)c1ccc2c(c1)OCO2 | 8.70

----------
Below is a list of entries, each paired with its recorded IC50 value.
Target or system: HIV protease (Human immunodeficiency virus type 1 group M subtype B, UniProt P04585)
Construct: HIV protease is diluted in the assay buffer to a final enzyme concentration of 12.3 nanomolar, based on a molecular weight of 10,780
Experimental protocol: HIV protease enzyme assay (fluorescence, substrate 2-Ile-Nle-Phe(p-NO2)-Gln-ArgNH2)
Type: biochemical
Assay conditions: Table 21, 80 μM substrate, 12.3 nanomolar enzyme, pH 6.4
Result type: IC50

Molecule smiles | Result type | Observed result
COc1ccc(S(=O)(=O)N(CC(C)C)C[C@@H](O)[C@H](Cc2ccccc2)NC(=O)[C@@H](NC(=O)CN2CCCC2)C(C)(C)C)cc1 | IC50 | 3 nM
COC(=O)Nc1nc2cc(S(=O)(=O)N(CC(C)C)C[C@@H](O)[C@H](Cc3ccccc3)NC(=O)[C@@H](NC(=O)CN3CCCC3)C(C)(C)C)ccc2[nH]1 | IC50 | 2 nM
COc1ccc(S(=O)(=O)N(CC(C)C)C[C@@H](O)[C@H](Cc2ccccc2)NC(=O)[C@@H](NC(=O)CN2CCCC2)C(C)C)cc1 | IC50 | 3 nM
CC(C)CN(C[C@@H](O)[C@H](Cc1ccccc1)NC(=O)[C@@H](NC(=O)CN1CCCC1)C(C)C)S(=O)(=O)c1ccc2c(c1)OCO2 | IC50 | 3 nM
CC(C)CN(C[C@@H](O)[C@H](Cc1ccccc1)NC(=O)[C@@H](NC(=O)CN1CCCC1)C(C)(C)S(C)(=O)=O)S(=O)(=O)c1ccc2c(c1)OCO2 | IC50 | 4 nM
CC(C)CN(C[C@@H](O)[C@H](Cc1ccccc1)NC(=O)[C@@H](NC(=O)CN1CCCC1)C(C)(C)C)S(=O)(=O)c1ccc2ncsc2c1 | IC50 | 3 nM
